All values here come from ChEMBL document CHEMBL1150804.

System: Measles morbillivirus
procedureText: Antiviral activity against measles virus genotype C assessed as reduction of virus yield
Format: functional, organism-based
readoutLabel: EC50 (µM)
Answer with a number only, understood to be in µM.

Lab request: please report EC50 under test system Measles morbillivirus for Cn1nc(C(F)(F)F)cc1C(=O)Nc1ccc(S(=O)(=O)N2CCCC2)cc1
0.11

* * *

For each record, write down the corresponding CC50.
procedureText: Cytotoxicity against african green monkey Vero cells expressing human SLAM by Promega assay
Assay type: cell-based
recordedConditions: chlorocebus sabaeus
The reply should contain only the number, in µM.

Report CC50 for Cc1ccc2nsnc2c1S(=O)(=O)Nc1ccc(Cl)cc1 please.
100

Thanks! And O=C(NC(=O)N(c1ccc(Cl)cc1)S(=O)(=O)c1ccccc1)Nc1ccccc1Cl ?
121
